Data origin, for the record: patent US20180086804A1

Target: T1, HLA-DRB3 (HLA-DRB3*01:01) (human)
T1 construct: mature; purified from homozygous EBV-transformed lymphoblastoid cells with antibody L243
Test: competition ELISA vs biotin-LOL 191-210
No end group written: not given here.
reportedProperty: relative affinity
Respond with the number and no other words.

Query string: Reported relative affinity for MTVSIIDRFMQNNCV-NH2 [CCNB1 225-239] : what is it?
Result string: 9

Query string: Next: RAILIDWLVQVQMKF-NH2 [CCNB1 202-216]
Result string: 2

Query string: What would you report for PTLQHYLSYTEESLL-NH2 [CCNB1 363-377] ?
Result string: 11

Query string: Now this one: SEYVKDIYAYLRQLE-NH2 [CCNB1 168-182]
Result string: 30

Query string: Similarly, GNMRAILIDWLVQVQ-NH2 [CCNB1 199-213] ?
Result string: 9

Query string: Please answer likewise for DWLVQVQMKFRLLQE-NH2 [CCNB1 207-221]
Result string: 160

Query string: # iterate: VQMKFRLLQETMYMT-NH2 [CCNB1 212-226]
Result string: 34

Query string: What would you report for TAMFIASKYEEMYPP-NH2 [CCNB1 250-264] ?
Result string: 34

Query string: What about this binder? QHYLSYTEESLLPVM-NH2 [CCNB1 366-380]
Result string: 32

Query string: Can you check FRLLQETMYMTVSII-NH2 [CCNB1 216-230] next?
Result string: 11

Query string: What about this binder? SQIAAGAFCLALKIL-NH2 [CCNB1 342-356]
Result string: 239

Query string: Would you kindly repeat that for GDFAFVTDNTYTKHQ-NH2 [CCNB1 267-281] ?
Result string: 38

Query string: Ok, now LQLVGVTAMFIASKY-NH2 [CCNB1 244-258]
Result string: 267

Query string: Would you mind doing ETMYMTVSIIDRFMQ-NH2 [CCNB1 221-235] as well?
Result string: 22
